// values below are reported % of binding vs wild-type fragment 15-37
target: T1, EGFRvIII amino acid residues 15 to 37 with Met27 to Ala mutation (human); assay: yeast display flow cytometry, Myc-normalized;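 note: Anti-EGFRvIII monoclonal antibodies tested by flow cytometry on yeast displaying alanine-substituted fragments, two-color indirect fluorescence with anti-Myc signal tracking fusion protein expression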
T1 construct: mutation is already in the entry
T1 sequence (peptide, as listed by the source, change not shown): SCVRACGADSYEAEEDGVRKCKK

{"BINDER": "F263-4E11 (antibody, V domains shown, Mouse hybridoma mAb) VH: DVQLQESGPGLVKPSQSLSLTCTVTGYSITSDYAWNWIRQFPGNKLEWMGYIGYNGRTSYNPSLKSRISITRDTSKNQFFLQLNYVTTEDTATFYCARLGRGFAYWGQGTLVTVSA VL: DILMTQSPSSMSVSLGDTVSITCHASQGINSNIGWLLQKPGKSFKGLIYHGTNLEDGVPSRFSGSGSGTDYSLTISSLESEDFADYYCVQYAQFPYTFGGGTKLEIK", "% of binding vs wild-type fragment 15-37, %": 102}
{"BINDER": "F263-4B3 (antibody, V domains shown, Mouse hybridoma mAb) VH: EVQLQQSGPELVKPGSSVKISCKASGYTFTDYNMDWVKQSHGKSLEWIGTINPNNGGTSYNQKFKGKATLTVDKSSNTAYMELRSLTSEDSAVYYCARGYDYDLWFAYWGQGTLVTVSA VL: EIVLTQSPALMAASPGEKVTITCSVSSSISSSNLHWYQQKSETSPKPWIYGTSNLASGVPVRFSGSGSGTSYSLTISSMEAEDAATYYCQQWSSYPLTFGAGTKLELE", "% of binding vs wild-type fragment 15-37, %": 101}
{"BINDER": "F263-5D8 (antibody, V domains shown, Mouse hybridoma mAb) VH: EVQLQQSGPDLVKPGSSVKISCKASGYTFTDYNIDWVKQSHGKSLEWIGTINPNYGGTSYNQKFKGKATLTVDKSSSTAYMELRSLTSEDSAVYYCARGYDYDLWFAYWGQGTLVTVSA VL: EIVLTQSPVFMAASPGEKVTITCSVSSSISSSNLHWYQQKSETSPKPWIYGTSNLASGVPVRFSGSGSGTSYSLTISSMEAEDAATYYCQQWSSYPLTFGAGTKLELK", "% of binding vs wild-type fragment 15-37, %": 96.5}
{"BINDER": "F265-9C9 (antibody, V domains shown, Mouse hybridoma mAb) VH: QVQLQQPGAELVKPGASVKLSCKASGYTFTSYWMHWVKQRPGQDLEWIGEIDPSDSYTNYNQKFKGKATLTVDKSSSTAYIQLSSLTSEDSALYYCARFDFAYWGQGTLVTVSA VL: EIVLTQSPTLMAASPGEKVTITCSVSSSISSSNLHWYQQKSETSPKPWIYDTSNLASGVPIRFSGSGSGTSYSLTISSVEAEDAATYYCQQWSSYPLTFGSGTKLEIK", "% of binding vs wild-type fragment 15-37, %": 159}
